experimental.protocol: pKa of CrystaLEAD hits
Assignment: determine reported pKa for the given molecules.
Give bare numbers.

Known results for molecules:
Cc1nc(N)ccc1Br ... 6
Nc1ccc2cccc(O)c2n1 [Compound 19, 2-amino-8-hydroxyquinoline] ... 7.3
Cc1ccc(N)nc1 ... 7

Data request: Name the reported pKa value associated with the molecule `Nc1ccc2c(c1)CC=N2`
Data returned: 6

###

assay.system: VanX (Enterococcus faecium)
Sequence (Q06241 whole entry): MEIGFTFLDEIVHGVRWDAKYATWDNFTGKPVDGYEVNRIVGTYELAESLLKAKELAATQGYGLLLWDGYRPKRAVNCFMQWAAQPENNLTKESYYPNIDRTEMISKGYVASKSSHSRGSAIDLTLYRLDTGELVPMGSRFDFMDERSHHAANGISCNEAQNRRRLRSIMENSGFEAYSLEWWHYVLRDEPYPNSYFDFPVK
experimental.protocol: CrystaLEAD crystallographic screening of VanX crystals
settings: crystals soaked in mixtures of 7-10 compounds
quantity.name: binding at the VanX active site seen in electron density map

O=C(O)C1CCCC1 ... bound
O=C(O)C(=O)CS ... bound

###

assay.system: human urokinase (μUK) (Homo sapiens, UniProt P00749, C299A/N322Q)
Construct: μUK (UK amino acids Ile^159-Lys^404 that contain Ala^279Gln^302); made in house; host or cells: baculovirus-infected High-Five insect cells or Pichia pastoris GS115 (secreted)
experimental.protocol: Urokinase inhibition constants by S-2444 chromogenic activity
Format: biochemical
settings: pH 6.5 (0.1 M NaPO4), S-2444 substrate; read-out: Ki (pH 6.5)
Protocol: Assays were completed at both pH 6.5 (0.1 M NaPO4) and 7.4 (50 mM Tris).
quantity.name: Ki (µM)
Numbers only, in µM.

Data request: Name the reported Ki value associated with the compound Nc1ccc2c(c1)CC=N2 [Compound 22, 5-aminoindole]
Data returned: 200

###

assay.system: human urokinase (μUK) (Homo sapiens, UniProt P00749, C299A/N322Q)
Construct: μUK (UK amino acids Ile^159-Lys^404 that contain Ala^279Gln^302); made in house; host or cells: baculovirus-infected High-Five insect cells or Pichia pastoris GS115 (secreted)
experimental.protocol: Urokinase inhibition constants by S-2444 chromogenic activity
Type: biochemical
settings: Ki (pH 7.4), pH 7.4 (50 mM Tris), S-2444 substrate
quantity.name: Ki (µM)
One number for each entry, in µM.

Data request: Name the reported Ki value associated with the compound Nc1ccc2cccc(O)c2n1 [Compound 19, 2-amino-8-hydroxyquinoline]
Data returned: 137

###

assay.system: μUK (Homo sapiens, UniProt P00749, C299A/N322Q)
settings: crystal soaked in mixture of 6 to 7 compounds, 3.3 to 5.2 mM each; compound 31 soaked individually
quantity.name: binding at the urokinase active site seen in Fo-Fc electron density map

Nc1ccc2c(c1)CC=N2 ... found to bind
Cc1ccc(N)nc1 ... found to bind
Nc1ccc2cccc(O)c2n1 [Compound 19, 2-amino-8-hydroxyquinoline] ... bound

###

experimental.protocol: Oral bioavailability in the rat
settings: in vivo, 10 mg/kg dose
quantity.name: bioavailability

Data request: Name the reported bioavailability value associated with the compound Nc1ccc2cccc(Nc3ncccn3)c2n1 [Compound 35, 8-aminopyrimidinyl-2-aminoquinoline]
Data returned: 30 to 40%

These measurements were taken from patent US20040219607A1.
